- System: JA 657 chicks
- EXPERIMENTAL_PROTOCOL: Chick sleep/sedation test (IM injection, 90 minute observation)
- Assay type: in vivo
- EXPERIMENTAL_CONDITIONS: Dose: 1 mg/kg, extension of first sleep compared with test controls
The reader will find reported TS (mins) Placebo diff'ce values listed item by item below.

[
  {
    "SMILES_NOTATION": "CCn1c2c(c3cc(C)ccc31)CCn1c-2cnc1C.CS(=O)(=O)O",
    "TS (mins) Placebo diff'ce (min)": 57
  },
  {
    "SMILES_NOTATION": "COc1ccc2[nH]c3c(c2c1)CCn1cncc1-3",
    "TS (mins) Placebo diff'ce (min)": 36
  },
  {
    "SMILES_NOTATION": "COc1ccc2[nH]c3c(c2c1)CCn1c-3cnc1-c1ccccc1",
    "TS (mins) Placebo diff'ce (min)": 32
  },
  {
    "SMILES_NOTATION": "COc1ccc2[nH]c3c(c2c1)CCn1c-3cnc1C.CS(=O)(=O)O",
    "TS (mins) Placebo diff'ce (min)": 3
  },
  {
    "SMILES_NOTATION": "CCn1c2c(c3ccccc31)CCn1c-2cnc1C.CS(=O)(=O)O",
    "TS (mins) Placebo diff'ce (min)": 21
  },
  {
    "SMILES_NOTATION": "COc1ccc2[nH]c3c(c2c1)CCn1c-3cnc1C(C)C",
    "TS (mins) Placebo diff'ce (min)": 52.5
  },
  {
    "SMILES_NOTATION": "CS(=O)(=O)O.Cc1ncc2n1CCc1c-2[nH]c2ccc(Cl)cc12",
    "TS (mins) Placebo diff'ce (min)": 33
  },
  {
    "SMILES_NOTATION": "CS(=O)(=O)O.Cc1ncc2n1CCc1c-2[nH]c2ccccc12",
    "TS (mins) Placebo diff'ce (min)": 39
  },
  {
    "SMILES_NOTATION": "CS(=O)(=O)O.Cc1ccc2[nH]c3c(c2c1)CCn1c-3cnc1C",
    "TS (mins) Placebo diff'ce (min)": 24
  }
]

---

Here the recorded TS (mins) Placebo diff'ce is given for each entry.
- System: JA 657 chicks
- EXPERIMENTAL_PROTOCOL: Chick sleep/sedation test (IM injection, 90 minute observation)
- Format: in vivo
- EXPERIMENTAL_CONDITIONS: Dose: 1 mg/kg, extension of first sleep compared with test controls
ENDPOINT: TS (mins) Placebo diff'ce (min)

[
  {
    "SMILES_NOTATION": "COc1ccc2[nH]c3c(c2c1)CCn1c(C)nc(-c2ccccc2)c1-3",
    "UNIT_SYMBOL": "min",
    "RECORDED_VALUE": 34
  },
  {
    "SMILES_NOTATION": "CS(=O)(=O)O.Cc1ncc2n1CCc1c-2n(C)c2ccc(Cl)cc12",
    "UNIT_SYMBOL": "min",
    "RECORDED_VALUE": 14.7
  },
  {
    "SMILES_NOTATION": "CCn1c2c(c3cc(Cl)ccc31)CCn1c-2cnc1C.CS(=O)(=O)O",
    "UNIT_SYMBOL": "min",
    "RECORDED_VALUE": 11.7
  },
  {
    "SMILES_NOTATION": "CCCc1ncc2n1CCc1c-2[nH]c2ccc(OC)cc12",
    "UNIT_SYMBOL": "min",
    "RECORDED_VALUE": 16
  },
  {
    "SMILES_NOTATION": "CCCc1ncc2n1CCc1c-2n(C)c2ccc(OC)cc12.CS(=O)(=O)O",
    "UNIT_SYMBOL": "min",
    "RECORDED_VALUE": 21
  },
  {
    "SMILES_NOTATION": "CS(=O)(=O)O.Cc1ncc2n1CCc1c-2n(C)c2ccccc12",
    "UNIT_SYMBOL": "min",
    "RECORDED_VALUE": 56
  },
  {
    "SMILES_NOTATION": "COc1ccc2c(c1)c1c(n2C)-c2cnc(C)n2CC1.CS(=O)(=O)O",
    "UNIT_SYMBOL": "min",
    "RECORDED_VALUE": 2.8
  },
  {
    "SMILES_NOTATION": "CS(=O)(=O)O.Cc1ccc2c(c1)c1c(n2C)-c2cnc(C)n2CC1",
    "UNIT_SYMBOL": "min",
    "RECORDED_VALUE": 11
  },
  {
    "SMILES_NOTATION": "CCc1nc(C)n2c1-c1[nH]c3ccc(OC)cc3c1CC2",
    "UNIT_SYMBOL": "min",
    "RECORDED_VALUE": 29
  },
  {
    "SMILES_NOTATION": "CS(=O)(=O)O.Cc1ncc2n1CCc1c-2[nH]c2ccc(O)cc12",
    "UNIT_SYMBOL": "min",
    "RECORDED_VALUE": -0.3
  },
  {
    "SMILES_NOTATION": "CS(=O)(=O)O.Cc1ncc2n1CCc1c-2n(C)c2ccc(O)cc12",
    "UNIT_SYMBOL": "min",
    "RECORDED_VALUE": 4.7
  }
]

---

- Test system: JA 657 chicks
- EXPERIMENTAL_PROTOCOL: Chick sleep/sedation test (IM injection, 90 minute observation)
- Type: in vivo
- EXPERIMENTAL_CONDITIONS: Dose: 1 mg/kg, 90 min observation
ENDPOINT: TA (time to torpor between injection and first stage of sleep) (min)

[
  {
    "SMILES_NOTATION": "COc1ccc2[nH]c3c(c2c1)CCn1c-3cnc1-c1ccccc1",
    "UNIT_SYMBOL": "min",
    "RECORDED_VALUE": 7
  },
  {
    "SMILES_NOTATION": "CS(=O)(=O)O.Cc1ncc2n1CCc1c-2[nH]c2ccc(O)cc12",
    "UNIT_SYMBOL": "min",
    "RECORDED_VALUE": 40
  },
  {
    "SMILES_NOTATION": "COc1ccc2[nH]c3c(c2c1)CCn1cncc1-3",
    "UNIT_SYMBOL": "min",
    "RECORDED_VALUE": 10
  },
  {
    "SMILES_NOTATION": "CS(=O)(=O)O.Cc1ncc2n1CCc1c-2n(C)c2ccc(O)cc12",
    "UNIT_SYMBOL": "min",
    "RECORDED_VALUE": 15
  },
  {
    "SMILES_NOTATION": "CCn1c2c(c3cc(Cl)ccc31)CCn1c-2cnc1C.CS(=O)(=O)O",
    "UNIT_SYMBOL": "min",
    "RECORDED_VALUE": 12
  },
  {
    "SMILES_NOTATION": "CCCc1ncc2n1CCc1c-2[nH]c2ccc(OC)cc12",
    "UNIT_SYMBOL": "min",
    "RECORDED_VALUE": 16.5
  }
]

---

- System: JA 657 chicks
- EXPERIMENTAL_PROTOCOL: Chick sleep/sedation test (IM injection, 90 minute observation)
- Type: in vivo
- EXPERIMENTAL_CONDITIONS: Dose: 10 mg/kg, 90 min observation
As shown below, each of these compounds has a reported TA (time to torpor between injection and first stage of sleep) value.
ENDPOINT: TA (time to torpor between injection and first stage of sleep) (min)

[
  {
    "SMILES_NOTATION": "CCn1c2c(c3cc(Cl)ccc31)CCn1c-2cnc1C.CS(=O)(=O)O",
    "ASSAY_SYSTEM": "JA 657 chicks",
    "RECORDED_VALUE": 5
  },
  {
    "SMILES_NOTATION": "CCn1c2c(c3ccccc31)CCn1c-2cnc1C.CS(=O)(=O)O",
    "ASSAY_SYSTEM": "JA 657 chicks",
    "RECORDED_VALUE": 1
  },
  {
    "SMILES_NOTATION": "CS(=O)(=O)O.Cc1ncc2n1CCc1c-2n(C)c2ccc(O)cc12",
    "ASSAY_SYSTEM": "JA 657 chicks",
    "RECORDED_VALUE": 11.5
  },
  {
    "SMILES_NOTATION": "CCCc1ncc2n1CCc1c-2n(C)c2ccc(OC)cc12.CS(=O)(=O)O",
    "ASSAY_SYSTEM": "JA 657 chicks",
    "RECORDED_VALUE": 5.5
  },
  {
    "SMILES_NOTATION": "CCc1nc(C)n2c1-c1[nH]c3ccc(OC)cc3c1CC2",
    "ASSAY_SYSTEM": "JA 657 chicks",
    "RECORDED_VALUE": 13.5
  },
  {
    "SMILES_NOTATION": "CS(=O)(=O)O.Cc1ncc2n1CCc1c-2[nH]c2ccccc12",
    "ASSAY_SYSTEM": "JA 657 chicks",
    "RECORDED_VALUE": 1
  },
  {
    "SMILES_NOTATION": "COc1ccc2[nH]c3c(c2c1)CCn1c-3cnc1C.CS(=O)(=O)O",
    "ASSAY_SYSTEM": "JA 657 chicks",
    "RECORDED_VALUE": 7
  },
  {
    "SMILES_NOTATION": "COc1ccc2[nH]c3c(c2c1)CCn1cncc1-3",
    "ASSAY_SYSTEM": "JA 657 chicks",
    "RECORDED_VALUE": 6.5
  },
  {
    "SMILES_NOTATION": "CS(=O)(=O)O.Cc1ncc2n1CCc1c-2n(C)c2ccc(Cl)cc12",
    "ASSAY_SYSTEM": "JA 657 chicks",
    "RECORDED_VALUE": 7.5
  },
  {
    "SMILES_NOTATION": "COc1ccc2[nH]c3c(c2c1)CCn1c-3cnc1C(C)C",
    "ASSAY_SYSTEM": "JA 657 chicks",
    "RECORDED_VALUE": 12.5
  },
  {
    "SMILES_NOTATION": "CCCc1ncc2n1CCc1c-2[nH]c2ccc(OC)cc12",
    "ASSAY_SYSTEM": "JA 657 chicks",
    "RECORDED_VALUE": 12.5
  },
  {
    "SMILES_NOTATION": "CS(=O)(=O)O.Cc1ncc2n1CCc1c-2n(C)c2ccccc12",
    "ASSAY_SYSTEM": "JA 657 chicks",
    "RECORDED_VALUE": 1
  },
  {
    "SMILES_NOTATION": "CS(=O)(=O)O.Cc1ccc2[nH]c3c(c2c1)CCn1c-3cnc1C",
    "ASSAY_SYSTEM": "JA 657 chicks",
    "RECORDED_VALUE": 7.5
  },
  {
    "SMILES_NOTATION": "COc1ccc2[nH]c3c(c2c1)CCn1c(C)nc(-c2ccccc2)c1-3",
    "ASSAY_SYSTEM": "JA 657 chicks",
    "RECORDED_VALUE": 8.5
  },
  {
    "SMILES_NOTATION": "CS(=O)(=O)O.Cc1ncc2n1CCc1c-2[nH]c2ccc(O)cc12",
    "ASSAY_SYSTEM": "JA 657 chicks",
    "RECORDED_VALUE": 6
  },
  {
    "SMILES_NOTATION": "CS(=O)(=O)O.Cc1ccc2c(c1)c1c(n2C)-c2cnc(C)n2CC1",
    "ASSAY_SYSTEM": "JA 657 chicks",
    "RECORDED_VALUE": 3.5
  },
  {
    "SMILES_NOTATION": "CS(=O)(=O)O.Cc1ncc2n1CCc1c-2[nH]c2ccc(Cl)cc12",
    "ASSAY_SYSTEM": "JA 657 chicks",
    "RECORDED_VALUE": 4
  },
  {
    "SMILES_NOTATION": "CCn1c2c(c3cc(C)ccc31)CCn1c-2cnc1C.CS(=O)(=O)O",
    "ASSAY_SYSTEM": "JA 657 chicks",
    "RECORDED_VALUE": 1.5
  },
  {
    "SMILES_NOTATION": "COc1ccc2c(c1)c1c(n2C)-c2cnc(C)n2CC1.CS(=O)(=O)O",
    "ASSAY_SYSTEM": "JA 657 chicks",
    "RECORDED_VALUE": 16.5
  },
  {
    "SMILES_NOTATION": "COc1ccc2[nH]c3c(c2c1)CCn1c-3cnc1-c1ccccc1",
    "ASSAY_SYSTEM": "JA 657 chicks",
    "RECORDED_VALUE": 7
  }
]
